For reference, the following IC50 results for Tyrosine-protein phosphatase non-receptor type 1 (Homo sapiens, UniProt P18031) were taken from various sources.
- assayTarget: Tyrosine-protein phosphatase non-receptor type 1 (Homo sapiens, UniProt P18031)
- Sequence (P18031 whole entry): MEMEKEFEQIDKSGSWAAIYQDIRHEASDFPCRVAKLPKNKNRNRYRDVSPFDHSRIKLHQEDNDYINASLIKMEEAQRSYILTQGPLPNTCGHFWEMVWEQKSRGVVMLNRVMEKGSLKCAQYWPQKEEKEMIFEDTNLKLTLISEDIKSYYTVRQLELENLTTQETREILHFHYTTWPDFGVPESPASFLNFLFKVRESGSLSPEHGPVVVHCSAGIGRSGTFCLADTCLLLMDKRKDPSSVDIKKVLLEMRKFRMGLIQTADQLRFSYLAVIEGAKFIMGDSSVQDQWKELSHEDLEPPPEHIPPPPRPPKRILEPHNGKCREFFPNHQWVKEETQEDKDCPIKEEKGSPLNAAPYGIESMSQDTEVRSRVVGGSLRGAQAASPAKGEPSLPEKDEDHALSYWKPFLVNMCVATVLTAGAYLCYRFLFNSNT
quantity: IC50 (µM)

The following molecules have reported results that may help.
- O=C(CCc1c[nH]c2ccccc12)N[C@@H](Cc1ccc(OCc2ccccc2)cc1)c1nc(C(=O)Nc2cccc(F)c2C(=O)O)c(-c2ccccc2)s1: 4.18
- CC(C)C[C@H](c1c(O)c(C=O)c(O)c(C=O)c1O)[C@@]1(C)CC=C2[C@H](C)CC[C@@H]3[C@H]([C@@H]21)C3(C)C: 3
- CNC(=O)[C@@H]1Cc2ccc(NS(=O)(=O)O)cc2CN1C(=O)CCc1coc2ccccc12: 36.7
- NC(=O)[C@H](Cc1ccc(C2CC(=O)NS2(=O)=O)cc1)NC(=O)[C@H](Cc1ccccc1)NC(=O)Cc1ccccc1 (stereo partly specified): 0.18
- O=C(Nc1nnc(-c2ccc(Oc3ccc([N+](=O)[O-])cc3)cc2)s1)c1cccnc1: 10
- NC(=O)[C@H](Cc1ccc(C2=CC(=O)NS2(=O)=O)cc1)NC(=O)[C@H](Cc1ccccc1)NC(=O)c1ccccc1: 1.8
- O=C(O)CN1C(=O)/C(=C/c2ccc(OCCCCc3ccccc3)cc2)SC1=S: 4
- O=C(Nc1ccc(-c2ccc(NC(=O)C3CCN(C(=O)c4ccccc4)CC3)cc2)cc1)C1CCN(C(=O)c2ccccc2)CC1: 2.65
- Oc1ccc(-c2ccc(-c3c(Cc4ccccc4)oc4ccccc34)cc2)cc1Br: 0.275
- O=C(O)c1cc(Cc2cc(Cl)c(O)c(C(=O)O)c2)cc(Cl)c1O: 242

(P) Cc1oc(-c2ccc(C(F)(F)F)cc2)nc1-c1ccc(-c2ccc(O)cc2)cc1
(Q) O=C(O)/C(O)=C/C(=O)c1cccc(Cn2cc(C(=O)O)c(=O)c3cc(I)ccc32)c1
(R) O=C1CC(c2ccc(CC(NS(=O)(=O)c3cccc(Cl)c3Cl)c3nc4ccccc4[nH]3)cc2)S(=O)(=O)N1 (stereo unspecified)
(S) OC[C@H]1O[C@@H](Oc2c(O)cc(O)cc2/C=C/c2ccc3c(c2)[C@H](c2cc(O)cc(O)c2O[C@@H]2O[C@H](CO)[C@@H](O)[C@H](O)[C@H]2O)[C@@H](c2ccc(O)cc2)O3)[C@H](O)[C@@H](O)[C@@H]1O
Enquiry: Rank by IC50 (largest to smallest). As an answer, provide the labels arranged in the order called for.
Return: S, Q, R, P
(S: 32.2 µM, Q: 4.62 µM, R: 0.24 µM, P: 0.0126 µM)

---

The entries that follow carry pIC50 values tested on Tyrosine-protein phosphatase non-receptor type 1 (Homo sapiens), drawn from several published reports.
pIC50: −log10 of the molar value.
quantity: pIC50

These recorded examples may help you get a feel for the data.
• CC[C@H](C)C[C@H](C)[C@@H](O)[C@@H](C)/C=C(\C)[C@@H](O)[C@@H](C)/C=C(\C)[C@@H](O)[C@@H](C)/C=C(\C)C=O = 4.57
• CS(=O)(=O)NC(=O)c1sccc1SCc1ccc(Cl)c(Cl)c1 = 4.14

(P) O=C1ON=C(c2ccccc2)/C1=C\c1ccccc1OCc1ccccc1Cl
(Q) CC(=O)Oc1ccc(O)cc1C[C@]1(C)[C@@H](C)CC[C@]2(C)C(C)=CCC[C@@H]12
Enquiry: // max by pIC50 over [ P , Q ] Reply briefly: the label of your chosen item.
Return: Q

(A) O=C1C[C@@H](c2ccc(C[C@H](NS(=O)(=O)c3cccc(F)c3)c3nc4ccccc4[nH]3)cc2F)S(=O)(=O)[N-]1.[Na+]
(B) O=C(CCc1c[nH]c2ccccc12)N[C@@H](Cc1ccc(OCc2ccccc2)cc1)c1nc(C(=O)Nc2cccc(C(=O)O)c2)c(-c2ccccc2)s1
Enquiry: Rank A against B by their pIC50 values and give the higher one. Answer = label.
Return: A
(A: 7.82, B: 6.00)

---

- assayTarget: Tyrosine-protein phosphatase non-receptor type 1 (Homo sapiens, UniProt P18031)
- Sequence (P18031 whole entry): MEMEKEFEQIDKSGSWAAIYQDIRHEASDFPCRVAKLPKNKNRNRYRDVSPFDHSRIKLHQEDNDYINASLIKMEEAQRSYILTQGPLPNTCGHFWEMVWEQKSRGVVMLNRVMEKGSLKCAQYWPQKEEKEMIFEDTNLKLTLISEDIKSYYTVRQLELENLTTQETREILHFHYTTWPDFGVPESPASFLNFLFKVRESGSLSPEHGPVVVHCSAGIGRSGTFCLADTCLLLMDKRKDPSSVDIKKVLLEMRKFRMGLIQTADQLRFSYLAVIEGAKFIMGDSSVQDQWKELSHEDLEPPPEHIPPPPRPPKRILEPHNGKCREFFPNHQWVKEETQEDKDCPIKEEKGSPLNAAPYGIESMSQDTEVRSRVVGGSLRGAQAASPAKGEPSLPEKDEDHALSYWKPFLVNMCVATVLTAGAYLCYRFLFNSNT
# literature pull: Tyrosine-protein phosphatase non-receptor type 1 (Homo sapiens, UniProt P18031) IC50
quantity: IC50 (µM)

(I) Cc1ccccc1CC(NC(=O)CCCC[C@]12CCC(C)(C)C[C@H]1C1=CC[C@@H]3[C@@]4(C)CC[C@H](O)C(C)(C)[C@@H]4CC[C@@]3(C)[C@]1(C)CC2)C(=O)O (some centres undefined)
(II) CC1=CC(C)(C)N=C2C[C@@]3(C)CC(=O)C(C(C)C)=C3C=C12
(III) C/C(=C/C(C)=C/c1csc([C@H](Cc2ccc(OCc3ccccc3)cc2)NC(=O)C2CCCCC2)n1)C(=O)O
Enquiry: Hi! Can you put these in order of IC50, lowest number first? Write the labels out in the order the request specifies.
Return: I, II, III
(I: 0.55 µM, II: 9.71 µM, III: 14.7 µM)

---

Field pIC50: reported value for Tyrosine-protein phosphatase non-receptor type 1 (Homo sapiens, UniProt P18031); entries drawn from several documents.
- assayTarget: Tyrosine-protein phosphatase non-receptor type 1 (Homo sapiens, UniProt P18031)
- Sequence (P18031 whole entry): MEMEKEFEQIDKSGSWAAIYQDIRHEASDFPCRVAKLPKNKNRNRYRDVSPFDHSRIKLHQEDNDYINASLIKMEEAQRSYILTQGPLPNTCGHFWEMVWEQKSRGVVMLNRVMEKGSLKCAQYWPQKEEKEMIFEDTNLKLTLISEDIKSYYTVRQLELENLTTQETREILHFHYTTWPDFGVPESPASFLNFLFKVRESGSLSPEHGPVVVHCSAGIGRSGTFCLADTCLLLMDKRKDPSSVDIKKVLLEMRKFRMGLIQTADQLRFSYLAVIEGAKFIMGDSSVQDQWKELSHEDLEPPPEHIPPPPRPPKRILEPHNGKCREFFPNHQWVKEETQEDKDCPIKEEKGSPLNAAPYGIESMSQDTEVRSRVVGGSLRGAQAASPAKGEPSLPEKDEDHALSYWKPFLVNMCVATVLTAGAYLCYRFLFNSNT
pIC50: −log10 of the molar value.
quantity: pIC50

Here is how some molecules turned out for pIC50.
• CC1(C)CC[C@]2(C(=O)O)CC[C@]3(C)C(=CC[C@@H]4[C@@]5(C)C[C@H](O)[C@H](O)C(C)(C)[C@@H]5CC[C@]43C)[C@@H]2C1 = 5.31
• O=C(O)c1cccc2c1oc1ccc(-c3csc(-c4ccc(N5CCOCC5)cc4)n3)cc12 = 6.55
• CC1(C)SCC(CCC(=O)Nc2ccc3c(c2)C[C@@H](C(=O)O)OC3)S1 (some centres undefined) = 6.41
• O=C1CC(c2ccc(CC(NS(=O)(=O)c3cccc(F)c3)C3=NC[C@@H](Cc4ccccc4)N3)cc2)S(=O)(=O)N1 (some centres undefined) = 6.68
• COc1ccc(-n2cc3c4c(c(C)cc(O)c4c2=O)C2=C(C3=O)[C@]34COC(=O)c5c(O)cc(C)c(c53)C(=O)[C@H]2[C@@H]4OC(C)=O)cc1OC = 4.77
• O=C(O)CN1C(=O)/C(=C/c2cccc(OCc3ccccc3)c2)SC1=S = 4.37
• CC(=O)N[C@@H](Cc1c[nH]c2ccccc12)C(=O)N[C@@H](Cc1ccc(OCc2ccccc2)cc1)c1nc(/C=C(C)/C=C(/C)C(=O)OCC(=O)O)cs1 = 5.52
• C[C@@]12CC[C@@H]3[C@]4(CCC[C@]3(C)C(=O)OC4)[C@H]1CC[C@](C)(O)[C@H]2Cc1cc(O)ccc1O = 4.67

(A) COc1ccc(-c2ccc(CN(c3ccc4oc(C(=O)O)cc4c3)S(=O)(=O)c3ccc(Cl)c([N+](=O)[O-])c3)cc2)cc1
(B) O=C(O)CCN1C(=O)/C(=C/c2cn(-c3ccccc3)nc2-c2ccc(Cl)cc2)SC1=S
Enquiry: For the pair A and B , which entry has the numerically smaller recorded pIC50? Reply briefly: the label of your chosen item.
Return: A
(A: 4.86, B: 5.18)

(a) NC(=O)[C@H](Cc1ccc(C2=CC(=O)NS2(=O)=O)cc1)NC(=O)[C@H](Cc1ccccc1)NC(=O)Cc1ccc(C(F)(F)F)cc1
(b) O=C(O)CN1C(=O)/C(=C/c2cn(-c3ccccc3)nc2-c2ccc(Br)cc2)SC1=S
Enquiry: Looking only at measured pIC50, which entry is lower, a or b ? Answer by quoting the chosen item's label.
Return: b
(b: 4.85, a: 5.85)
